EXPERIMENT_DESCRIPTION: log P by HPLC
Assay type: physicochemical
CONDITIONS_USED: HPLC, gradient method, acetonitrile/0.1% aqueous phosphoric acid; EEC directive 79/831 Annex V. A8
Field: logP. Provide a value for each of the compounds that follow.
Answer using only a numeral; do not append any unit.

q: Give recorded logP. CCN(Cc1ccco1)c1c(-c2ccc(F)cc2F)c(Cl)nc2nc(C(F)(F)F)nn12 [compound 549]
a: 4.42

q: Let me know recorded logP for CCN(CCN(C)C)c1c(-c2c(F)cccc2F)c(Cl)nc2nc(C)nn12 [compound 567] , thanks.
a: 1.46

q: Please give measured logP of the following entry: Cc1nc2nc(Cl)c(-c3c(F)cc(F)cc3F)c(N3CCC(C)CC3)n2n1 [compound 166]
a: 3.9

q: Answer with the recorded logP for the compound listed here: Cc1nc2nc(Cl)c(-c3c(F)cc(F)cc3F)c(NC(C)C(F)(F)F)n2n1 (centres unmarked) [compound 113]
a: 3.03

q: Name the recorded logP of the item CCc1nc2nc(Cl)c(-c3c(F)cc(F)cc3F)c(N3CCCCC3C(F)(F)F)n2n1 (centres unmarked) [compound 94] in your answer.
a: 4.27

q: Return logP (reported value) for this compound: CC(C)C(C)Nc1c(-c2ccc(F)cc2Cl)c(Cl)nc2nc(C3CC3)nn12 (racemic) [compound 775]
a: 4.23

q: Output measured logP for this item: C=C(C)CN(C)c1c(-c2c(F)cccc2F)c(Cl)nc2nc(C3CC3)nn12 [compound 677]
a: 3.98

q: For Fc1ccc(-c2c(Cl)nc3nc(C(F)(F)F)nn3c2N2CCc3ccccc3C2)c(F)c1 [compound 815] , write its logP.
a: 4.35

###

EXPERIMENT_DESCRIPTION: log P by HPLC
Assay type: physicochemical
CONDITIONS_USED: HPLC, gradient method, acetonitrile/0.1% aqueous phosphoric acid; EEC directive 79/831 Annex V. A8
PARAMETER: logP
No unit in the answer, only the number.

q: State its logP for this compound: C=C(C)CN(C)c1c(-c2ccc(F)cc2F)c(Cl)nc2nc(C3CC3)nn12
a: 4.05

q: Find the measured logP of CCCN(CC1CCCO1)c1c(-c2ccc(F)cc2F)c(Cl)nc2nc(C(F)(F)F)nn12 (stereo not drawn) and report it.
a: 4.77

q: Tell me logP reported for OC1CCN(c2c(-c3ccc(F)cc3F)c(Cl)nc3nc(C4CC4)nn23)CC1
a: 2.29

q: Specify reported logP for the compound shown: COCCNc1c(-c2c(F)cc(F)cc2F)c(Cl)nc2nc(C(F)(F)F)nn12
a: 3.38

q: Consider the compound C=C(C)CNc1c(-c2ccccc2Cl)c(Cl)nc2nc(C)nn12 and give its recorded logP.
a: 2.83

q: Identify measured logP associated with CCN(CCN(C)C)c1c(-c2c(F)cc(F)cc2F)c(Cl)nc2nc(C)nn12
a: 1.59

q: // Input: Fc1ccc(-c2c(Cl)nc3nc(C4CC4)nn3c2NC2CCCC2)c(Cl)c1 . Output its logP only.
a: 4.13

q: Given the compound Cc1nc2nc(Cl)c(-c3c(F)cccc3F)c(N3CC(C)OC(C)C3)n2n1 (stereo not drawn) , write its reported logP.
a: 2.84

q: Provide logP value for the following compound: CC(C)C(C)Nc1c(-c2ccc(Cl)cc2Cl)c(Cl)nc2nc(C3CC3)nn12 (single isomer, unassigned) [compound 758]
a: 4.72

q: Please report the measured logP for Fc1ccc(-c2c(Cl)nc3nc(C4CC4)nn3c2N2CCCCC2)c(Cl)c1
a: 4.37

q: Give the reported logP for this compound. Cc1ccc(Nc2c(-c3ccc(F)cc3F)c(Cl)nc3nc(C(F)(F)F)nn23)cc1
a: 4.08

q: Find the measured logP of CCc1nc2nc(Cl)c(-c3c(F)cc(F)cc3F)c(NCC#N)n2n1 and report it.
a: 2.27

q: Output measured logP for this item: CC(Nc1c(-c2ccc(F)cc2F)c(Cl)nc2nc(C(F)(F)F)nn12)C1CCCCC1 (stereo not drawn)
a: 5.12

q: Return value of logP for input CC1CCCN1c1c(-c2ccc(F)cc2F)c(Cl)nc2nc(C3CC3)nn12 (stereo not drawn) , no commentary.
a: 3.76

q: Answer with the recorded logP of C=C(C)CN(C)c1c(-c2ccc(F)cc2F)c(Cl)nc2nc(C)nn12 only.
a: 3.41

q: Using the record for Cc1nc2nc(Cl)c(-c3ccc(F)cc3Cl)c(NC(C)C(C)C)n2n1 (stereo not drawn) , state its measured logP.
a: 3.6

q: Look up logP of CC(=O)NC1CCN(c2c(-c3ccc(F)cc3F)c(Cl)nc3nc(C(F)(F)F)nn23)C1 (stereo not drawn) and report it.
a: 2.56

q: Note down logP recorded for CCN(CC1CCCO1)c1c(-c2ccc(F)cc2F)c(Cl)nc2nc(C3CC3)nn12 (stereo not drawn)
a: 3.78

q: Supply measured logP of Fc1ccc(-c2c(Cl)nc3nc(C(F)(F)F)nn3c2N2CCSCC2)c(F)c1 in your reply.
a: 4.04

q: Tell me measured logP for Cc1nc2nc(Cl)c(-c3c(F)cc(F)cc3F)c(N3CCC(F)CC3)n2n1 please.
a: 3.03

q: Item CC1=CCCN(c2c(-c3ccc(F)cc3F)c(Cl)nc3nc(C(F)(F)F)nn23)C1 : provide logP
a: 4.55

q: Entry Fc1ccc(-c2c(Cl)nc3nc(C(F)(F)F)nn3c2NC2CCCCC2)c(F)c1 needs its logP filled in; supply it.
a: 4.47

q: Assign logP to the following record: C=C(C)CN(C)c1c(-c2ccccc2Cl)c(Cl)nc2nc(C)nn12
a: 3.57

q: Give the measured logP for Fc1cc(F)c(-c2c(Cl)nc3nc(C(F)(F)F)nn3c2N2CCCC2)c(F)c1
a: 3.92

###

EXPERIMENT_DESCRIPTION: log P by HPLC
Assay type: physicochemical
CONDITIONS_USED: EEC directive 79/831 Annex V. A8 by HPLC (gradient method, acetonitrile/0.1% aqueous phosphoric acid)
PARAMETER: logP

q: Provide measured logP value, entry: Cc1nc2nc(Cl)c(-c3ccccc3F)c(NOCc3ccc(C(F)(F)F)cc3)n2n1
a: 3.43

q: # return recorded logP for input Cc1nc2nc(Cl)c(-c3ccccc3F)c(NC3CC3)n2n1
a: 2.41

q: Give reported logP value for CC1=CCCN(c2c(-c3ccc(F)cc3F)c(Cl)nc3nc(C)nn23)C1
a: 3.49

q: Specify reported logP for the compound shown: CC(Nc1c(-c2ccc(F)cc2Cl)c(Cl)nc2nc(C3CC3)nn12)C(F)(F)F (racemic)
a: 3.75

###

EXPERIMENT_DESCRIPTION: log P by HPLC
Format: physicochemical
CONDITIONS_USED: EEC directive 79/831 Annex V. A8 by HPLC (gradient method, acetonitrile/0.1% aqueous phosphoric acid)
Provide the recorded logP for the entries that follow.
# print the numeric value only

q: Note down logP recorded for Cc1nc2nc(Cl)c(-c3ccc(F)cc3F)c(N(C)CC#N)n2n1 [compound 412]
a: 2.34

q: Identify measured logP associated with C=CCN(C)c1c(-c2c(F)cccc2F)c(Cl)nc2nc(C)nn12 [compound 333]
a: 2.95

q: Give the measured logP for CCC(C)ONc1c(-c2ccccc2F)c(Cl)nc2nc(C)nn12 (centres unmarked) [compound 370]
a: 2.87

q: Return logP for the following compound: Cc1nc2nc(Cl)c(-c3ccc(F)cc3F)c(N3CCCC(O)C3)n2n1 (centres unmarked) [compound 452]
a: 2.2

q: Name the recorded logP of the item Cc1nc2nc(Cl)c(-c3c(F)cccc3Cl)c(N(C)Cc3ccco3)n2n1 [compound 274] in your answer.
a: 3.26

q: Give the measured logP for Cc1nc2nc(Cl)c(-c3ccc(F)cc3F)c(N3CCC(C)(C)CC3)n2n1 [compound 288]
a: 4.01

q: Tell me logP reported for Cc1ccc(Nc2c(-c3ccc(F)cc3F)c(Cl)nc3nc(C4CC4)nn23)cc1 [compound 521]
a: 3.6

q: Report measured logP; entry is Cc1nc2nc(Cl)c(-c3c(F)cccc3F)c(N3CCC(N)C3)n2n1 (centres unmarked) [compound 441]
a: 1.19

q: Item Cc1nc2nc(Cl)c(-c3c(F)cccc3F)c(N3CCC(N(C)C)C3)n2n1 (centres unmarked) [compound 306] : provide logP
a: 1.18

q: Output logP of Cc1nc2nc(Cl)c(-c3ccc(F)cc3F)c(N(C)CCN(C)C)n2n1 [compound 350]
a: 1.23

q: Supply measured logP of Cc1nc2nc(Cl)c(-c3c(F)cccc3F)c(NOCc3cccc(C(F)(F)F)c3)n2n1 [compound 433] in your reply.
a: 3.41

q: Given the compound CCCCN(C)c1c(-c2c(F)cccc2F)c(Cl)nc2nc(C)nn12 [compound 338] , write its reported logP.
a: 3.46

q: Respond only with logP recorded for Cc1nc2nc(Cl)c(-c3c(F)cc(F)cc3F)c(NC(C)C3CC3)n2n1 (centres unmarked) [compound 379]
a: 3.09

q: Consider the compound Cc1nc2nc(Cl)c(-c3c(F)cccc3F)c(N(C)C)n2n1 [compound 418] . State its measured logP.
a: 2.37

q: Tell me measured logP for Fc1cc(F)c(-c2c(Cl)nc3nc(C4CC4)nn3c2N2CCCCO2)c(F)c1 [compound 485] please.
a: 3.74

q: Identify measured logP associated with Cc1nc2nc(Cl)c(-c3c(F)cccc3F)c(Nc3ccc(F)cc3)n2n1 [compound 445]
a: 2.71

q: For the compound Fc1cc(F)c(-c2c(Cl)nc3nc(C4CC4)nn3c2NCC2CC2)c(F)c1 [compound 465] , give its measured logP value.
a: 3.43

q: Please report logP for the following compound: CCC1=CCN(c2c(-c3ccc(F)cc3F)c(Cl)nc3nc(C)nn23)CC1 [compound 290]
a: 3.94

q: Return logP for the following compound: Fc1ccc(-c2c(Cl)nc3nc(C4CC4)nn3c2N2CCSCC2)c(F)c1 [compound 519]
a: 3.58

q: Give a short answer stating reported logP for Cc1nc2nc(Cl)c(-c3c(F)cccc3F)c(NOCc3ccc(C(F)(F)F)cc3)n2n1 [compound 430] .
a: 3.44

q: # return recorded logP for entry C#CCN(C)c1c(-c2ccc(F)cc2F)c(Cl)nc2nc(C)nn12 [compound 351]
a: 2.67

q: Note logP for the compound shown: Cc1nc2nc(Cl)c(-c3ccccc3F)c(N(C)C)n2n1 [compound 381]
a: 2.34

q: Supply logP value. Item: Cc1nc2nc(Cl)c(-c3c(F)cccc3F)c(N3CCC(O)C3)n2n1 (centres unmarked) [compound 303]
a: 1.73

q: Give the reported logP for this compound. Cc1nc2nc(Cl)c(-c3ccc(F)cc3F)c(N3CCCC3)n2n1 [compound 281]
a: 2.74

q: Please report the measured logP for Cc1nc2nc(Cl)c(-c3ccccc3F)c(NOCc3ccc(F)cc3)n2n1 [compound 369]
a: 2.98

q: Item Fc1cccc(Cl)c1-c1c(Cl)nc2nc(C3CC3)nn2c1N1CCCCO1 [compound 486] : provide logP
a: 3.74

q: Tell me its logP given CNc1c(-c2ccccc2F)c(Cl)nc2nc(C)nn12 [compound 389] as the entry.
a: 2.02

q: For the compound Fc1ccc(-c2c(Cl)nc3nc(C4CC4)nn3c2N2CCC(C(F)(F)F)CC2)c(F)c1 [compound 515] , give its measured logP value.
a: 4.07

q: Tell me logP reported for Fc1cccc(Cl)c1-c1c(Cl)nc2nc(C3CC3)nn2c1NC1CCCC1 [compound 479]
a: 3.83
